- Assay Info: HIF-2a reporter inhibitors, primary screen, luminescence, 786-0 RCC cells (AID 624352)
- Details: 786-0 RCC cells HIF-2a reporter, luciferase luminescence, overnight; at 18.8 µM
The campaign covered roughly 360,000 compounds. About 2,600 (0.72%) were called active.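 Rule for the calls: active = inhibition of the luminescence signal of 40% or more relative to plate controls, in a single-dose primary screen at 18.75 µM; inactive = the rest.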 The sample as a whole holds a higher share of actives than the screen did.
Labels: yes for active, no for inactive

[
  {
    "Compound": "CCN1CCN(C(=O)c2cc3cc4ccc(OC)cc4nc3s2)CC1",
    "Class Assignment": "no"
  },
  {
    "Compound": "Cc1ccc(N(Cc2cc(=O)[nH]c3ccccc23)C(=O)CCl)cc1",
    "Class Assignment": "yes"
  },
  {
    "Compound": "c1c2c(cc3sc(N4CCCCC4)nc13)OCCO2",
    "Class Assignment": "yes"
  },
  {
    "Compound": "O=C(Nc1ccccc1C(=O)O)c1cc(S(=O)(=O)N2CCCCC2)cs1",
    "Class Assignment": "no"
  },
  {
    "Compound": "CC(C)C1Nc2c(C(=O)O)cccc2C(Nc2ccccc2C(=O)O)C1(C)C (stereo unspecified)",
    "Class Assignment": "no"
  },
  {
    "Compound": "CC(C)(C)c1ccc(Oc2ccc(N)cc2)cc1",
    "Class Assignment": "yes"
  },
  {
    "Compound": "COC(=O)[C@H](CC(C)C)NC(=O)N1CCCCC1C (stereo partly specified)",
    "Class Assignment": "no"
  },
  {
    "Compound": "Cc1ccc(S(=O)(=O)NCC(=O)N(CC(=O)NCC2CCCO2)c2cccc(F)c2)cc1 (stereo unspecified)",
    "Class Assignment": "no"
  },
  {
    "Compound": "CCOC(=O)c1nn(-c2ccccc2F)c2nc(Nc3ccccc3)cc(=O)n12",
    "Class Assignment": "no"
  },
  {
    "Compound": "COCCNC(=O)c1ccccc1-c1nc(-c2ccccc2Cl)no1",
    "Class Assignment": "no"
  },
  {
    "Compound": "O=C(NC1=CC(=O)c2ccccc2C1=O)c1ccccc1",
    "Class Assignment": "yes"
  },
  {
    "Compound": "CCc1cccc(NC(=O)CCCN2C(=O)C(c3ccccc3)Oc3cccnc32)c1 (stereo unspecified)",
    "Class Assignment": "no"
  },
  {
    "Compound": "O=C(c1ccccc1)C(O)(CN1CCCCC1)c1ccccc1 (stereo unspecified)",
    "Class Assignment": "no"
  },
  {
    "Compound": "CC(NC(=O)CC1SC(N)=NC1=O)c1ccccc1 (stereo unspecified)",
    "Class Assignment": "no"
  },
  {
    "Compound": "O=C(CSc1c2c(nc3ccc(Cl)cc13)CCCC2)NCc1ccco1",
    "Class Assignment": "no"
  },
  {
    "Compound": "COc1ccc(-c2nc3c(s2)CCc2onc(-c4ccc(OC)cc4)c2-3)cc1",
    "Class Assignment": "no"
  },
  {
    "Compound": "CCOC(=O)c1c(C)nn(-c2ncccc2NC(=O)CCC(=O)O)c1C",
    "Class Assignment": "no"
  },
  {
    "Compound": "COC(=O)c1c(NC(=O)C2CC(C)=C(C)CC2C(=O)O)sc2c1CCCCC2 (stereo unspecified)",
    "Class Assignment": "no"
  },
  {
    "Compound": "Cc1ccc(-c2nn(C(C)(C)C)c3ncnc(N)c23)cc1",
    "Class Assignment": "yes"
  },
  {
    "Compound": "Cc1cc(C)n(C(=O)CCNC(=O)c2ccccc2Cl)n1",
    "Class Assignment": "no"
  },
  {
    "Compound": "CN(C)CC(C)(C)CNC(=O)c1cc(Br)cc(Br)c1O",
    "Class Assignment": "no"
  },
  {
    "Compound": "O=C(OC1CCOC1=O)c1cccc(S(=O)(=O)Nc2ccc(F)cc2)c1 (stereo unspecified)",
    "Class Assignment": "no"
  },
  {
    "Compound": "COCCn1c(SCC(=O)Nc2ccccc2F)nc2c(c1=O)SCC2",
    "Class Assignment": "no"
  },
  {
    "Compound": "COc1ccc(CN2CCNC(=O)C2CC(=O)N(C)Cc2ccccn2)cc1OC (stereo unspecified)",
    "Class Assignment": "no"
  },
  {
    "Compound": "O=C(O)c1cccc(N=NN2CCCCCC2)c1",
    "Class Assignment": "yes"
  },
  {
    "Compound": "Cn1c(=NC(=O)c2ccc3c(c2)OCCO3)sc2cc(S(C)(=O)=O)ccc21",
    "Class Assignment": "no"
  }
]
